Target: Serine/threonine-protein phosphatase PP1-alpha catalytic subunit (Homo sapiens)
Assay: inhibition of human PP1 catalytic subunit – biochemical, fluorescence, OMFP substrate, single point, counter-screen for PP5 inhibitor project, primary screen (AID 2235)
Conditions: purified PP1alpha, at 6.7 µM
About 2,800 (0.88%) of roughly 320,000 compounds were called active.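 The calls were made as follows: active = inhibition above the mean inhibition of all tested compounds plus 3 SD, computed separately for each screening campaign (cut at about 15% in these data); inactive = the rest.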 The sample as a whole holds a higher share of actives than the screen did.
Please reply with one of these outcomes: active, inactive

Input: What did the test return for CCCn1c(C)cc(-c2csc(NC(=O)CCc3nc4ccccc4c(=O)[nH]3)n2)c1C ?
Output: active

Input: What did the test return for Cc1c(-c2nn(C)c(=O)c3ccccc23)oc2ccc(F)cc2c1=O ?
Output: inactive

Input: What did the test return for O=C(Nc1nnc(CCOCCOCCc2nnc(NC(=O)c3ccco3)s2)s1)c1ccco1 ?
Output: inactive

Input: What did the test return for O=C(Nc1nc(-c2ccco2)c(-c2ccco2)s1)c1ccco1 ?
Output: active

***
Input: What did the test return for COc1ccc(CN2CCNC(=O)C2CC(=O)NCc2cn[nH]c2-c2ccccc2)c(F)c1 (stereo not given) ?
Output: inactive
